Every entry's value here was drawn from patent US10750743B2.

Listing of entries alongside the reported Plant response rating (0 to 100 scale), Pigweed.
# System: pigweed (Amaranthus retroflexus)
# PROTOCOL DESCRIPTION: Test A preemergence, directed soil spray, visual injury rating
# Assay type: in vivo
# MEASUREMENT PARAMETERS: 31 g ai/ha, 0 is no effect, 100 is complete control
Lab note: write the figure by itself, no unit.

The cases that follow already have their Plant response rating (0 to 100 scale), Pigweed on record.
[[record]]
molecule = "Cc1cc2c(-c3c(OC(=O)c4ccccc4)c(C)nn(C)c3=O)ccc(Cl)c2o1 [Compound 44]"
recorded_value = 0

[[record]]
molecule = "CC(=O)Oc1c(Cl)nn(C)c(=O)c1-c1cccc2cccnc12 [Compound 71]"
recorded_value = 0


Exam item: Quick one: Plant response rating (0 to 100 scale), Pigweed for Cc1nn(C)c(=O)c(-c2ccc(Cl)c3ccoc23)c1O [Compound 56] ?
Marked response: 0

Exam item: I have this molecule here, COC(=O)Oc1c(C)nn(C)c(=O)c1-c1cccc2cc(C)oc12 [Compound 28] , and I need its recorded Plant response rating (0 to 100 scale), Pigweed.
Marked response: 0

Exam item: # Plant response rating (0 to 100 scale), Pigweed lookup, item CCC(=O)Oc1c(C)nn(C)c(=O)c1-c1ccc(Cl)c2sccc12 [Compound 58]
Marked response: 20

Exam item: Request the reported Plant response rating (0 to 100 scale), Pigweed associated with Cc1cc2c(-c3c(O)c(C)nn(C)c3=O)ccc(Cl)c2o1 [Compound 45]
Marked response: 0

Exam item: Which Plant response rating (0 to 100 scale), Pigweed reading was recorded for the molecule Cc1nn(C)c(=O)c(-c2ccc(Cl)c3sccc23)c1O [Compound 63] ?
Marked response: 0

Exam item: Find the recorded Plant response rating (0 to 100 scale), Pigweed belonging to Cc1cc2c(Cl)ccc(-c3c(O)c(C)nn(C)c3=O)c2o1 [Compound 43] and report it.
Marked response: 0

Exam item: Would you kindly share the measured Plant response rating (0 to 100 scale), Pigweed for CCC(=O)Oc1c(C)nn(C)c(=O)c1-c1c(C(F)(F)F)ccc2cc(C)oc12 [Compound 47] ?
Marked response: 60

Exam item: Name the recorded Plant response rating (0 to 100 scale), Pigweed for CC(=O)Oc1c(C)nn(C)c(=O)c1-c1ccc(Cl)c2ccsc12 [Compound 51] .
Marked response: 0

###

Quick reference: pest or weed control at 125 g/ha of the listed items.
# Test system: ragweed (common ragweed, Ambrosia elatior)
# PROTOCOL DESCRIPTION: Test A postemergence application, visual injury rating
# Assay type: in vivo
# MEASUREMENT PARAMETERS: Ambrosia artemisiifolia, post-emergence, 240 h, 125 g ai/ha, 0 to 100 scale, 0 no effect, 100 complete control, read-out: Ragweed plant response rating
Remember to quote the unit after the number.

Worked examples, 4 compounds total:
[[record]]
compound_smiles = "Cc1ccc2sccc2c1-c1c(O)c(C)nn(C)c1=O"
measured_property = "pest or weed control at 125 g/ha"
recorded_value = "80%"

[[record]]
compound_smiles = "Cc1cc2cccc(-c3c(O)c(C)nn(C)c3=O)c2o1"
measured_property = "pest or weed control at 125 g/ha"
recorded_value = "40%"

[[record]]
compound_smiles = "CCOC(=O)Oc1c(C)nn(C)c(=O)c1-c1c(C)ccc2sccc12"
measured_property = "pest or weed control at 125 g/ha"
recorded_value = "60%"

[[record]]
compound_smiles = "Cc1nn(C)c(=O)c(-c2ccc(F)c3ccoc23)c1O"
measured_property = "pest or weed control at 125 g/ha"
recorded_value = "10%"


Now look at this entry.
Exam item: GET /values?readout=pest or weed control at 125 g/ha&system=ragweed (common ragweed, Ambrosia elatior)&item= Cc1nn(C)c(=O)c(-c2cccc3snc(C)c23)c1O
Marked response: 70%

###

# Tested on: barnyardgrass (Echinochloa crus-galli)
# PROTOCOL DESCRIPTION: Test A postemergence application, visual injury rating
# Assay type: in vivo
# MEASUREMENT PARAMETERS: 31 g ai/ha, 0 to 100 scale, 0 no effect, 100 complete control
MEASURED PROPERTY: Barnyardgrass plant response rating

Consider the following illustrative entries.
[[record]]
molecule = "CC(=O)Oc1c(Cl)nn(C)c(=O)c1-c1cccc2cccnc12 [Compound 71]"
measured_property = "Barnyardgrass plant response rating"
recorded_value = 10

[[record]]
molecule = "CCC(=O)Oc1c(C)nn(C)c(=O)c1-c1ccc(Cl)c2ccsc12 [Compound 36]"
measured_property = "Barnyardgrass plant response rating"
recorded_value = 0

[[record]]
molecule = "Cc1nn(C)c(=O)c(-c2ccc(Cl)c3ccoc23)c1O [Compound 56]"
measured_property = "Barnyardgrass plant response rating"
recorded_value = 0

[[record]]
molecule = "CCC(=O)Oc1c(C)nn(C)c(=O)c1-c1ccc(Cl)c2cc(C)oc12 [Compound 41]"
measured_property = "Barnyardgrass plant response rating"
recorded_value = 20

[[record]]
molecule = "CCC(=O)Oc1c(C)nn(C)c(=O)c1-c1cccc2cc(C)oc12 [Compound 26]"
measured_property = "Barnyardgrass plant response rating"
recorded_value = 0

[[record]]
molecule = "CC(=O)Oc1c(C)nn(C)c(=O)c1-c1ccc(Cl)c2ccsc12 [Compound 51]"
measured_property = "Barnyardgrass plant response rating"
recorded_value = 0


Exam item: // Barnyardgrass plant response rating lookup, key: Cc1nn(C)c(=O)c(-c2ccc(Cl)c3sc(Br)cc23)c1O [Compound 37]
Marked response: 0

Exam item: Recorded Barnyardgrass plant response rating of COC(=O)Oc1c(C)nn(C)c(=O)c1-c1ccc(Cl)c2cc(C)oc12 [Compound 40] , please.
Marked response: 10

Exam item: // Barnyardgrass plant response rating lookup, key: Cc1cc2c(-c3c(O)c(C)nn(C)c3=O)ccc(Cl)c2o1 [Compound 45]
Marked response: 0

###

Below, each entry is listed alongside its reported pest or weed control at 500 g/ha.
# Tested on: ragweed (common ragweed, Ambrosia elatior)
# PROTOCOL DESCRIPTION: Test A postemergence application, visual injury rating
# Type: in vivo
# MEASUREMENT PARAMETERS: Ambrosia artemisiifolia, post-emergence, 240 h, 500 g ai/ha, 0 to 100 scale, 0 no effect, 100 complete control, read-out: Ragweed plant response rating
Number in %, nothing else.

Check out these entries, answers already filled in.
[[record]]
compound_smiles = "Cc1ccc2sccc2c1-c1c(O)c(C)nn(C)c1=O"
measured_property = "pest or weed control at 500 g/ha"
recorded_value = 80

[[record]]
compound_smiles = "CC(=O)Oc1c(C)nn(C)c(=O)c1-c1c(C)ccc2cc(C)oc12"
measured_property = "pest or weed control at 500 g/ha"
recorded_value = 100

[[record]]
compound_smiles = "Cc1cc2ccc(C)c(-c3c(O)c(C)nn(C)c3=O)c2o1"
measured_property = "pest or weed control at 500 g/ha"
recorded_value = 100


Exam item: Give the measured pest or weed control at 500 g/ha of CC(=O)Oc1c(C)nn(C)c(=O)c1-c1cccc2cc(C)oc12 .
Marked response: 70

###

Listed below: Kochia plant response rating values for each entry.
# Tested on: kochia (Kochia scoparia)
# PROTOCOL DESCRIPTION: Test A postemergence application, visual injury rating
# Assay type: in vivo
# MEASUREMENT PARAMETERS: 125 g ai/ha, 0 to 100 scale, 0 no effect, 100 complete control
Form: value (number only, do not type unit).

Past entries and their recorded results:
[[record]]
compound = "CCC(=O)Oc1c(C)nn(C)c(=O)c1-c1ccc(Cl)c2sccc12 [Compound 58]"
assay_target = "kochia (Kochia scoparia)"
recorded_value = 60

[[record]]
compound = "COC(=O)Oc1c(C)nn(C)c(=O)c1-c1ccc(Cl)c2ccsc12 [Compound 50]"
assay_target = "kochia (Kochia scoparia)"
recorded_value = 90

[[record]]
compound = "CCC(=O)Oc1c(C)nn(C)c(=O)c1-c1cccc2sccc12 [Compound 4]"
assay_target = "kochia (Kochia scoparia)"
recorded_value = 0

[[record]]
compound = "Cc1ccc2sc(Cl)cc2c1-c1c(O)c(C)nn(C)c1=O [Compound 46]"
assay_target = "kochia (Kochia scoparia)"
recorded_value = 90

[[record]]
compound = "Cc1nn(C)c(=O)c(-c2ccc(Cl)c3sccc23)c1O [Compound 63]"
assay_target = "kochia (Kochia scoparia)"
recorded_value = 60

[[record]]
compound = "Cn1nc(Cl)c(O)c(-c2cccc3[nH]nnc23)c1=O [Compound 38]"
assay_target = "kochia (Kochia scoparia)"
recorded_value = 0

[[record]]
compound = "Cc1nn(C)c(=O)c(-c2ccc(Cl)c3sc(Br)cc23)c1O [Compound 37]"
assay_target = "kochia (Kochia scoparia)"
recorded_value = 10

[[record]]
compound = "Cc1cc2c(-c3c(O)c(C)nn(C)c3=O)c(C)ccc2s1 [Compound 72]"
assay_target = "kochia (Kochia scoparia)"
recorded_value = 90


Exam item: Reported Kochia plant response rating for CCC(=O)Oc1c(C)nn(C)c(=O)c1-c1c(C)ccc2sccc12 [Compound 31] : what is it?
Marked response: 90

Exam item: Which measured Kochia plant response rating value corresponds to CCC(=O)Oc1c(C)nn(C)c(=O)c1-c1c(C(F)(F)F)ccc2cc(C)oc12 [Compound 47] ?
Marked response: 70

Exam item: Request the reported Kochia plant response rating associated with CCC(=O)Oc1c(C)nn(C)c(=O)c1-c1ccc(Cl)c2oc(C)cc12 [Compound 52]
Marked response: 0
